# Tested on: MDA-MB-231
# TEST NAME: Antiproliferative activity against human MDA-MB-231 cells after 48 hrs by MTT assay
# Format: functional, cell-based
# ASSAY SETUP: MDA-MB-231, 48 h
MEASURE: IC50

// worked examples, IC50 included
> print(dat)
                           substance.smiles  subject.of.test  measure  assay.result
1  O=[N+]([O-])c1ccc(N/N=C(/c2ccc(O)cc2)c2cccc3ccccc23)c([N+](=O)[O-])c1       MDA-MB-231     IC50       7.02 µM
2  O=C1/C(=C/c2ccc(F)cc2)CN(C(=S)NC(=O)c2ccccc2)C/C1=C\c1ccc(F)cc1       MDA-MB-231     IC50       < 10 µM
3  CCCCNC(=S)N1C/C(=C\c2ccccc2C)C(=O)/C(=C/c2ccccc2C)C1       MDA-MB-231     IC50       < 10 µM

Challenge: What does the data say about its IC50? Entry: `Cc1ccccc1/C=C1\CN(C(=S)NC(=O)c2ccccc2)C/C(=C\c2ccccc2C)C1=O`
Response given: < 10 µM

Challenge: What does the data say about its IC50? Entry: `COc1cc(/C=C/c2cc(=O)oc3c2ccc2ccccc23)cc(OC)c1`
Response given: 12.8 µM

Challenge: What does the data say about its IC50? Entry: `CCCCNC(=S)N1C/C(=C\c2ccccc2F)C(=O)/C(=C/c2ccccc2F)C1`
Response given: < 10 µM

Challenge: What does the data say about its IC50? Entry: `CCCCNC(=S)N1C/C(=C\c2ccc(C)cc2)C(=O)/C(=C/c2ccc(C)cc2)C1`
Response given: < 10 µM

----------
# SUBJECT OF TEST: DNA ligase 1 (Homo sapiens, UniProt P18858)
# Sequence (P18858 whole entry): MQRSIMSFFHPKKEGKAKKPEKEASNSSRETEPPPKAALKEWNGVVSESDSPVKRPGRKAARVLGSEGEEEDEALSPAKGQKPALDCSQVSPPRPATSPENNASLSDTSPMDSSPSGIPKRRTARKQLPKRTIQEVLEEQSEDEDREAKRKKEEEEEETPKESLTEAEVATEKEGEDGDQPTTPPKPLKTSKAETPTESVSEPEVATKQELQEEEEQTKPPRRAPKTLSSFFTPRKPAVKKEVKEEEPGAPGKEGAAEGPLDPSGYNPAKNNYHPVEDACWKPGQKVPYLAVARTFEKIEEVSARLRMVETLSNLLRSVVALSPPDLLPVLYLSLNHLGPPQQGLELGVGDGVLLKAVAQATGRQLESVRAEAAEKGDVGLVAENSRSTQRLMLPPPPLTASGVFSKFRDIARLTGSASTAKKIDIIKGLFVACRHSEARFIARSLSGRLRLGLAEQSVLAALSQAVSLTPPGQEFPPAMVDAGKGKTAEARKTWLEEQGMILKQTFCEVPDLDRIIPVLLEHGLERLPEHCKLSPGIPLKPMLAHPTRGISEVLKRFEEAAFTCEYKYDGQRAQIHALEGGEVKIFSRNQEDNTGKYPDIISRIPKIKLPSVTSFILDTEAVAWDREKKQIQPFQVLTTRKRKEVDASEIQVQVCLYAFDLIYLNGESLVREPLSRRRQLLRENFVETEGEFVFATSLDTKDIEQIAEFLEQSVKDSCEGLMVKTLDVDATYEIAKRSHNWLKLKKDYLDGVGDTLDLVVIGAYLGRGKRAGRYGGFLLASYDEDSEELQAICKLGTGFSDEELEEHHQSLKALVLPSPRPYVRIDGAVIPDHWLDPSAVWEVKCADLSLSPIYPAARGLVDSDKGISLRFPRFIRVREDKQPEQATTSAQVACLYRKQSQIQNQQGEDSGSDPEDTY
# TEST NAME: Inhibition of human DNA ligase 1 using 52-mer DNA/25-mer DNA/27-mer DNA as substrate
MEASURE: IC50

> print(dat)
                                   compound  assay.result
1  O=C1c2cc(Cl)ccc2NC(c2ccc(Cl)c(Cl)c2)c2cccn21 (configuration not stated)       15.8 µM

Please look at the following compound next.
Challenge: What does the data say about its IC50? Entry: O=C1c2cc(Cl)ccc2NC(c2ccc(Br)cc2)c2cccn21 (configuration not stated)
Response given: 23.1 µM

----------
# inhibition listing for each entry below
# SUBJECT OF TEST: DNA ligase 1 (Homo sapiens, UniProt P18858)
# TEST NAME: Inhibition of human DNA ligase 1 at 50 uM using 52-mer DNA/25-mer DNA/27-mer DNA as substrate by fluorescence assay relative to control
Enter your answer as a number in %; do not include the unit.

// worked examples, inhibition included
> print(dat)
                                   molecule  assay.result
1  CCOC(=O)N1CCN(CC(=O)Nc2cc(C)nc3ccc(NC(=O)Nc4ccc(C)c(Cl)c4)cc23)CC1          98.6
2  COc1cc([N+](=O)[O-])ccc1NC(=S)NCC12C=CC(O1)C1C(=O)N(c3ccc(C)cc3)C(=O)C12 (centres undefined)          98.2
3  CCOC(=O)N1CCN(CC(=O)Nc2cc(C)nc3ccc(NC(=O)Nc4ccc(Cl)cc4)cc23)CC1           1.5

Challenge: What does the data say about its inhibition? Entry: `CC(=O)c1ccc(NC(=O)Nc2ccc3nc(C)cc(NC(=O)c4ccco4)c3c2)cc1`
Response given: 42.4
